# assay-overview: Human HepG2 cell viability assay in 384 well format
# Type: toxicity, cell-based
# Parameters: dose 125 nL, time 70.5 hour; concentration not given beside the values
# assay-context: HepG2 cells, read-out: Inhibition
measured-endpoint: cytotoxicity at 70.5 h (%)
Answer with a number only, understood to be in %.

Supply measured cytotoxicity at 70.5 h of CN1C(=O)CC2(CCN(Cc3cnn(C)c3)CC2)c2ccccc21 in your reply. -2.77

Supply measured cytotoxicity at 70.5 h of C=C(C)C(=O)N1CCC(C(=O)c2cc(C)cnc2N)CC1 in your reply. 14.9

Supply measured cytotoxicity at 70.5 h of CN(CCN1CCCCCC1)C(=O)c1cc(CN2CCCC(O)C2)on1 (stereo unspecified) in your reply. -10.1

* * *

# assay-overview: Human HepG2 cell viability dose-response assay
# Type: toxicity, cell-based
Entries and their measured pXC50 follow.

                                 compound  value_measured
0    c1cncc(CN2CCCn3nnc(CN4CCCCC4)c3C2)c1          < 4.53
1  COC[C@H]1CCC[C@]12CN(Cc1cccc(C)n1)CCO2          < 4.53
2        Cc1cc(C)cc(C(=O)NCCCNc2ncccn2)c1           5.413

Supply measured pXC50 of COc1ccccc1N1CCN(C(=O)CSCC2CC2)C(C)C1 (stereo not given) in your reply. < 4.53

Supply measured pXC50 of O=C(C[C@@H]1COC[C@H]2CN(C3CCOCC3)C[C@@H]12)Nc1cnccn1 in your reply. < 4.53

* * *

Entries and their measured cytotoxicity at 70.5 h follow.
# assay-overview: Human HepG2 cell viability assay in 384 well format
# Assay type: toxicity, cell-based
# Parameters: dose 125 nL, time 70.5 hour; concentration not given beside the values
# assay-context: HepG2 cells, read-out: Inhibition
Answer with a number only, understood to be in %.

Consider the worked cases shown below.
>>> df
                                   compound  value_measured
0  CCc1ccc(CN2CCC(CNS(=O)(=O)C3CC3)C2)nc1 (centres undefined)           -2.29
1  CCCc1nc(C[S+]([O-])Cc2cn3cccc(C)c3n2)no1 (centres undefined)           -3.84
2  NC(=O)C1CCN(C(=O)CCCc2nnc(-c3ccccc3)o2)C1 (centres undefined)          -0.453
3  Cn1ccc(NC2CCN(C3CC3)C2=O)n1 (centres undefined)            11.7
4     O=C(NCCN1CCNCC1)c1nc2ccccc2c(=O)[nH]1           -2.57
5  Cc1ccc(C)c(OCc2cc(C(=O)N(C)Cc3nonc3C)no2)c1            3.12
6  CCN(C)CC(C)Cn1cnc(-c2ccccc2)c1C (centres undefined)           -15.1
7  CCCc1cc(C(=O)N(Cc2cccnc2)C[C@@H]2CCC(=O)N2)no1           -6.41

Here is the next item to consider.
Supply measured cytotoxicity at 70.5 h of O=C(c1csc(-c2ncccn2)n1)N1CCN(C2CCCC2)CC1 in your reply. -5.27

* * *

# assay-overview: Human HepG2 cell viability assay in 384 well format
# Type: toxicity, cell-based
# Parameters: dose 125 nL, time 70.5 hour; concentration not given beside the values
# assay-context: HepG2 cells, read-out: Inhibition
Entries and their measured cytotoxicity at 70.5 h follow.
Answer with a number only, understood to be in %.

Consider the worked cases shown below.
>>> df
                                   molecule  value_measured
0  CN(C)[C@H]1CCN(c2nc(C(C)(C)C)nc3c2cnn3C)C1            27.9
1  CC(C(=O)N1CCCCC1)N1CCN(c2nccs2)CC1 (stereo unspecified)            2.12
2   Cc1cccc(C)c1OC1CCN(Cc2ccn(C)c(=O)c2)CC1           -5.76
3  CCc1nc2ccccc2c(=O)n1CC1(O)CCN(S(C)(=O)=O)CC1           -20.2
4  COC(=O)c1sccc1S(=O)(=O)N1CCC(Oc2cccc(C)n2)CC1           -9.62
5  CC(C)Nc1nc2c(c(NC3CC3)n1)CN(C(=O)Cc1ccsc1)CC2            3.26
6  O=C(c1cc[nH]n1)N1CCCC(c2cccc(-n3ccnc3)n2)C1 (stereo unspecified)           -10.3
7         COCC(=O)N1CCCn2c(CN3CCOCC3)nnc2C1            2.56
8  CS(=O)(=O)NCC(=O)NC(Cc1ccccc1)C1CCCC1 (stereo unspecified)            -4.4
9  CC(C)c1ccc(CNC(c2ccc(F)cn2)C(C)C)cc1 (stereo unspecified)            0.89

Supply measured cytotoxicity at 70.5 h of Cc1ncsc1CCCNC(=O)C1CC2(CCNCC2)CN1C (stereo unspecified) in your reply. 13
